- test_target: T1, non-lipidated pilotin OutS (residues 26 to 132) of Dickeya dadantii (Dickeya dadantii, UniProt Q01567 26-132, disulfide bridge Cys 61-Cys 115)
- T1 chain: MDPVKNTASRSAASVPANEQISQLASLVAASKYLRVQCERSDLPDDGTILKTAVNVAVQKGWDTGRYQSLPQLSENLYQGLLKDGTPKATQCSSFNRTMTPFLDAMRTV
- assay_protocol: other fluorescence titration; quenching of the single tryptophan of pilotin (1 µM) on titration with 50 µM secretin peptide in 1 µM pilotin; excitation 290 nm, signal at 340 nm, 15°C
- run_conditions: both partners purified
value_kind: Kd (nM)
One number for each entry, in nM.

Entry under test: TYTFRQVQSSISDFYKPE (secretin OutD, Dickeya dadantii, residues 691 to 708 inclusive; also called 18 residue secretin peptide; OutD^691–708; source: synthetic peptide, bought: Generon) [18 residue synthetic secretin peptide (OutD residues 691 to 708 inclusive)] . Its Kd was 55
